- Tested on: HepG2 cells
- experimentNotes: Cytotoxic test on immortalized cells, MTT
- Type: cell-based, human
- testSettings: Homo sapiens, HepG2, 72 h
pIC50: −log10 of the molar value.
Let's look at some molecules and their measured pIC50.

> print(dat)
                                   molecule  reportedresult
1  COc1c(C(C)C)cc2c(c1OC)CC13CCCC(C)(C)C1CC2O3 (stereo not drawn) [Compound 7]          < 3.72
2  COc1c2c(c(-c3ccccc3)c(C(C)C)c1OC)[C@@H]1C[C@H]3CCCC[C@@]3(C2)O1 (racemic) [Compound 15]          < 4.30
3  COc1c2c(c(-c3ccccc3)c(C(C)C)c1OC)[C@@H]1C[C@H]3C(C)(C)CCC[C@@]3(C2)O1 (racemic) [Compound 11]          < 4.92

Exercise: # pIC50 lookup, item CC(C)c1cc2c(c(O)c1O)C[C@@]13CCCC(C)(C)[C@@H]1C[C@@H]2O3 [Compound 1, brussonol]
Solution: 4.17

Exercise: Also check COc1c2c(c(OC)c(C(C)C)c1OC)[C@@H]1C[C@H]3C(C)(C)CCC[C@@]3(C2)O1 (racemic) [Compound 8]
Solution: < 3.77

Exercise: Also check COc1c2c(c(Br)c(C(C)C)c1OC)C1CC3CCCCC3(C2)O1 (stereo not drawn) [Compound 14]
Solution: < 4.60
